Provide the recorded Activity for the entries that follow.
system: Mus musculus; assay: Phototoxicity in Swiss albino mouse exposed to 18 J/cm'2 UV light irradiation assessed as ear thickness at 140 mg/kg, po; format: organism-based; parameters: dose 140 mg/kg, route oral; settings: in vivo
Enter your answer as a number in mm; do not include the unit.

Reported Activity of O=C(O)c1cn(C2CC2)c2cc(N3CCN(Cc4ccc5c(c4)OCO5)CC3)c([N+](=O)[O-])cc2c1=O : 0.25

Reported Activity of CN1CCN(c2cc3c(cc2[N+](=O)[O-])c(=O)c(C(=O)O)cn3C2CC2)CC1c1ccccc1 (centres undefined) : 0.3

Reported Activity of CCn1cc(C(=O)O)c(=O)c2cc(F)c(N3CCNC(C)C3)c(F)c21 (centres undefined) [LOMEFLOXACIN] : 0.31

Reported Activity of O=C(O)c1cn(C2CC2)c2cc(N3CCC(N4CCCCC4)CC3)c([N+](=O)[O-])cc2c1=O : 0.24

----------
system: Mus musculus; assay: Phototoxicity in Swiss albino mouse exposed to 4 hrs of 18 J/cm'2 UV light irradiation assessed as erythema at 140 mg/kg, po after 96 hrs; format: organism-based; set-up: dose 140 mg/kg, route oral; conditions: in vivo

{"columns": ["compound", "Activity"],
 "data": [
  ["O=C(O)c1cn(C2CC2)c2cc(N3CCC(N4CCCCC4)CC3)c([N+](=O)[O-])cc2c1=O", "Non-toxic"],
  ["O=C(O)c1cn(C2CC2)c2cc(N3CCN(Cc4ccc5c(c4)OCO5)CC3)c([N+](=O)[O-])cc2c1=O", "Non-toxic"],
  ["CCn1cc(C(=O)O)c(=O)c2cc(F)c(N3CCNC(C)C3)c(F)c21 (centres undefined)", "Toxic"],
  ["CN1CCN(c2cc3c(cc2[N+](=O)[O-])c(=O)c(C(=O)O)cn3C2CC2)CC1c1ccccc1 (centres undefined)", "Non-toxic"]
]}

----------
Provide the recorded Activity for the entries that follow.
system: Mus musculus; test: Phototoxicity in Swiss albino mouse exposed to 4 hrs of 18 J/cm'2 UV light irradiation assessed as ear thickness at 140 mg/kg, po after 24 hrs; type: organism-based; parameters: dose 140 mg/kg, route oral; conditions: in vivo
Enter your answer as a number in mm; do not include the unit.

Reported Activity of CCn1cc(C(=O)O)c(=O)c2cc(F)c(N3CCNC(C)C3)c(F)c21 (centres undefined) : 0.48

Reported Activity of O=C(O)c1cn(C2CC2)c2cc(N3CCC(N4CCCCC4)CC3)c([N+](=O)[O-])cc2c1=O : 0.26

Reported Activity of O=C(O)c1cn(C2CC2)c2cc(N3CCN(Cc4ccc5c(c4)OCO5)CC3)c([N+](=O)[O-])cc2c1=O : 0.28

Reported Activity of CN1CCN(c2cc3c(cc2[N+](=O)[O-])c(=O)c(C(=O)O)cn3C2CC2)CC1c1ccccc1 (centres undefined) : 0.3

----------
experiment: Inhibition of Mycobacterium smegmatis DNA gyrase assessed as inhibition of relaxed circular pUC18 supercoiling activity by agarose gel electrophoresis; parameters: species or system Mycolicibacterium smegmatis
Provide the recorded IC50 for the entries that follow.
Enter your answer as a number in µg/mL; do not include the unit.

Reported IC50 of O=C(O)c1cn(C2CC2)c2cc(N3CCN(C(=O)c4ccco4)CC3)c([N+](=O)[O-])cc2c1=O : 30

Reported IC50 of CC1CN(c2cc3c(cc2[N+](=O)[O-])c(=O)c(C(=O)O)cn3-c2ccc(F)cc2)CC(C)O1 (configuration not stated) : 20

Reported IC50 of O=C(O)c1cn(C2CC2)c2cc(N3CCC(N4CCCCC4)CC3)c([N+](=O)[O-])cc2c1=O : 20

Reported IC50 of CC(C)(C)NC(=O)C1c2ccccc2CCN1c1cc2c(cc1[N+](=O)[O-])c(=O)c(C(=O)O)cn2C1CC1 (configuration not stated) : 30

Reported IC50 of O=C(O)c1cn(C2CC2)c2cc(N3CCC(n4c(=O)[nH]c5cc(Cl)ccc54)CC3)c([N+](=O)[O-])cc2c1=O : 20

Reported IC50 of O=C(O)c1cn(-c2ccc(F)cc2)c2cc(N3CCN(C(=O)C4COc5ccccc5O4)CC3)c([N+](=O)[O-])cc2c1=O (configuration not stated) : 30

Reported IC50 of O=C(O)c1cn(C2CC2)c2cc(N3CCN(Cc4ccc5c(c4)OCO5)CC3)c([N+](=O)[O-])cc2c1=O : 30

Reported IC50 of CC(C)(C)n1cc(C(=O)O)c(=O)c2cc([N+](=O)[O-])c(N3CCN(C(=O)c4ccco4)CC3)cc21 : 30

Reported IC50 of CC(C)(C)n1cc(C(=O)O)c(=O)c2cc([N+](=O)[O-])c(N3CCN(C(c4ccccc4)c4ccc(Cl)cc4)CC3)cc21 (configuration not stated) : 30

Reported IC50 of Cc1onc(-c2c(F)cccc2F)c1C(=O)N1CCN(c2cc3c(cc2[N+](=O)[O-])c(=O)c(C(=O)O)cn3C(C)(C)C)CC1 : 30

Reported IC50 of CN1CCN(c2cc3c(cc2[N+](=O)[O-])c(=O)c(C(=O)O)cn3C2CC2)CC1c1ccccc1 (configuration not stated) : 30

Reported IC50 of O=C(O)c1cn(C2CC2)c2cc(N3CCC(O)(c4ccc(Cl)cc4)CC3)c([N+](=O)[O-])cc2c1=O : 5

----------
Provide the recorded Activity for the entries that follow.
system: Mus musculus; experiment: Phototoxicity in Swiss albino mouse assessed as ear thickness at 140 mg/kg, po measured after 4 hrs of 18 J/cm'2 UV light irradiation; assay type: organism-based; set-up: dose 140 mg/kg, route oral; conditions: in vivo
Enter your answer as a number in mm; do not include the unit.

Reported Activity of CN1CCN(c2cc3c(cc2[N+](=O)[O-])c(=O)c(C(=O)O)cn3C2CC2)CC1c1ccccc1 (centres undefined) : 0.31

Reported Activity of CCn1cc(C(=O)O)c(=O)c2cc(F)c(N3CCNC(C)C3)c(F)c21 (centres undefined) : 0.4

Reported Activity of O=C(O)c1cn(C2CC2)c2cc(N3CCN(Cc4ccc5c(c4)OCO5)CC3)c([N+](=O)[O-])cc2c1=O : 0.27

Reported Activity of O=C(O)c1cn(C2CC2)c2cc(N3CCC(N4CCCCC4)CC3)c([N+](=O)[O-])cc2c1=O : 0.26

----------
Provide the recorded CC50 at 72 h for the entries that follow.
test: Cytotoxicity against african green monkey Vero cells after 72 hrs by MTT assay; format: cell-based; settings: chlorocebus sabaeus
Enter your answer as a number in µM; do not include the unit.

Reported CC50 at 72 h of O=C(O)c1cn2c(n1)CN(c1cc3c(cc1[N+](=O)[O-])c(=O)c(C(=O)O)cn3C1CC1)CC2 : 142

Reported CC50 at 72 h of O=C(O)c1cn(C2CC2)c2cc(N3CCN(C(=O)c4ccco4)CC3)c([N+](=O)[O-])cc2c1=O : 111

Reported CC50 at 72 h of O=C(O)c1cn(-c2ccc(F)cc2)c2cc(N3CCN(C(=O)C4COc5ccccc5O4)CC3)c([N+](=O)[O-])cc2c1=O (stereo not drawn) : 54.4

----------
tested on: Mus musculus; experiment: Phototoxicity in Swiss albino mouse exposed to 4 hrs of 18 J/cm'2 UV light irradiation assessed as erythema at 140 mg/kg, po after 48 hrs; assay type: organism-based; design: dose 140 mg/kg, route oral; conditions: in vivo
observable: Activity

{"columns": ["molecule", "assayed.target", "observable", "obs.value"],
 "data": [
  ["O=C(O)c1cn(C2CC2)c2cc(N3CCN(Cc4ccc5c(c4)OCO5)CC3)c([N+](=O)[O-])cc2c1=O", "Mus musculus", "Activity", "Non-toxic"],
  ["CN1CCN(c2cc3c(cc2[N+](=O)[O-])c(=O)c(C(=O)O)cn3C2CC2)CC1c1ccccc1 (centres undefined)", "Mus musculus", "Activity", "Non-toxic"],
  ["CCn1cc(C(=O)O)c(=O)c2cc(F)c(N3CCNC(C)C3)c(F)c21 (centres undefined)", "Mus musculus", "Activity", "Toxic"],
  ["O=C(O)c1cn(C2CC2)c2cc(N3CCC(N4CCCCC4)CC3)c([N+](=O)[O-])cc2c1=O", "Mus musculus", "Activity", "Non-toxic"]
]}

----------
Provide the recorded Activity for the entries that follow.
tested on: Mus musculus; assay: Phototoxicity in Swiss albino mouse exposed to 4 hrs of 18 J/cm'2 UV light irradiation assessed as ear thickness at 140 mg/kg, po after 96 hrs; format: organism-based; set-up: dose 140 mg/kg, route oral; settings: in vivo
Enter your answer as a number in mm; do not include the unit.

Reported Activity of CCn1cc(C(=O)O)c(=O)c2cc(F)c(N3CCNC(C)C3)c(F)c21 (centres undefined) : 0.6

Reported Activity of CN1CCN(c2cc3c(cc2[N+](=O)[O-])c(=O)c(C(=O)O)cn3C2CC2)CC1c1ccccc1 (centres undefined) : 0.34

Reported Activity of O=C(O)c1cn(C2CC2)c2cc(N3CCC(N4CCCCC4)CC3)c([N+](=O)[O-])cc2c1=O : 0.28

Reported Activity of O=C(O)c1cn(C2CC2)c2cc(N3CCN(Cc4ccc5c(c4)OCO5)CC3)c([N+](=O)[O-])cc2c1=O : 0.29
